Entry source: ChEMBL document CHEMBL5352403

system_tested: Amine oxidase [flavin-containing] A (Homo sapiens)
test: Inhibition of recombinant human MAO-A using kynuramine as substrate incubated for 20 mins by fluorescence based assay
outcome_measure: pIC50
The quantity pIC50 is defined as the negative base-10 logarithm of the molar concentration.

{"compound": "CCOC(=O)C(C(=O)N/N=C/c1ccc([N+](=O)[O-])cc1)[n+]1ccc2ccccc2c1 (configuration not stated)", "pIC50": 7.33}

So what's the measured pIC50 for this one? `O=C(/C=C/c1ccc(Cl)cc1)c1ccc2c(c1)OCO2`
7.33

----------
system_tested: Amine oxidase [flavin-containing] A (Homo sapiens, UniProt P21397)
Sequence (P21397 whole entry): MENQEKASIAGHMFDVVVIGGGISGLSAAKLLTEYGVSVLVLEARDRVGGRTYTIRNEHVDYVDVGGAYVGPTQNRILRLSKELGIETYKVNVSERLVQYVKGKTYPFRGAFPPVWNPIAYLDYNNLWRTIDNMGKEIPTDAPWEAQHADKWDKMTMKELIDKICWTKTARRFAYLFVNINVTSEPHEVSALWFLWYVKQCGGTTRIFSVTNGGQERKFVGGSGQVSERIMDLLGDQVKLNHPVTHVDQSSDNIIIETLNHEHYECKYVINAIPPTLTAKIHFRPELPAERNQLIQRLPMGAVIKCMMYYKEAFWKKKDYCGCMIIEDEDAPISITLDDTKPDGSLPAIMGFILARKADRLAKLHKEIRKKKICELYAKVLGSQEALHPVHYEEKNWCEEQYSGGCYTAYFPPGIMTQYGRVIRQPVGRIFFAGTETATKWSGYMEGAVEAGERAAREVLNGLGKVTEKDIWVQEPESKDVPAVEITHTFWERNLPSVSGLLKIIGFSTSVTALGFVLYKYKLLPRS
test: Inhibition of recombinant human MAO-A using p-tyramine as substrate incubated for 45 mins by Amplex Red reagent and horseradish peroxidase based fluorescence microplate reader analysis
outcome_measure: IC50

Find the measured IC50: item `CC(C)(C)c1ccc(S(=O)(=O)N2CCN(C(c3ccccc3)c3ccccc3)CC2)cc1` , target or system Amine oxidase [flavin-containing] A (Homo sapiens, UniProt P21397).
120 nM
